assay: Binding affinity at PKA
# Ki values compiled below
# number only, unit nM dropped from output

O=S(=O)(c1cccc2c(Cl)cccc12)N1CCCNCC1	32000
N=C(N)NCCNS(=O)(=O)c1cccc2cnccc12	2300

Kindly consider the entry below.
Look up Ki: Cc1cncc2cccc(S(=O)(=O)N3CCCNC[C@@H]3C)c12
630

* * *

These molecules were tested on Serine/threonine-protein kinase Chk2 (Homo sapiens); IC50 is the recorded read-out.
Sequence (O96017 whole entry): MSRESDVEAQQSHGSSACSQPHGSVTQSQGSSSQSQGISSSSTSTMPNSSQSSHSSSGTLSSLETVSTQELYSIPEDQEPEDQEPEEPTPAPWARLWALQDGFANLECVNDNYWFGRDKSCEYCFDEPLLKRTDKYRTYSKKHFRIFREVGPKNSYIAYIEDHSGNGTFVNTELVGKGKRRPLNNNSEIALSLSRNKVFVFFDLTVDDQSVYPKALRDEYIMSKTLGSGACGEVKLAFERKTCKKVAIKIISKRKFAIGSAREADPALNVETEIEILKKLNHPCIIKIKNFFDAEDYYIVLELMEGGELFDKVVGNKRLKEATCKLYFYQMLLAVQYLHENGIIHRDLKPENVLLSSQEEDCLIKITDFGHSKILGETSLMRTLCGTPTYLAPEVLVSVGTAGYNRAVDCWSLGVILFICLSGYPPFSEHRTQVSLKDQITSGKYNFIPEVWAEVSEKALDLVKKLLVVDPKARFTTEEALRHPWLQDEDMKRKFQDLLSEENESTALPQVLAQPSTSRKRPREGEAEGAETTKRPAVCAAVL
Please state the value followed by its unit.

O=C1NC(=O)c2c1c1c3ccccc3[nH]c1n1cncc21 [ISOGRANULATIMIDE]	3 µM

For the next question, use this molecule.
Give its IC50 value. Item: NC1=N/C(=C2/CCNC(=O)c3[nH]ccc32)C(=O)N1 [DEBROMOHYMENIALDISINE]
3.5 µM

* * *

experiment: Inhibition of Cdk5/p35
# Lookup of reported IC50 keyed by entry
Give just the numeric value; nM need not be written.

CC(C)[C@H](CO)Nc1nc(Nc2cccc(Cl)c2)c2ncn(C(C)C)c2n1 [PURVALANOLA]	75

# input for lookup
IC50 for CC(C)[C@H](CO)Nc1nc(Nc2cc(N)cc(Cl)c2)c2ncn(C(C)C)c2n1 [AMINOPURVALANOL] ?
20

* * *

assay: Plasma clearance in mouse at 5 mg/kg, iv; assay type: ADME, organism-based; design: dose 5 mg/kg, route intravenous
assay.endpoint: clearance (mL/min)
# value in mL/min; strip the unit string

I would be grateful if you could share the reported clearance for O=c1cc(N2CCOCC2)oc2c1ccc1ccccc12 .
1.8

* * *

Measured ΔTm (Mitogen-activated protein kinase 3 (Homo sapiens))
Please answer in the form of a number followed by its unit of measurement.

Worked set:
NS(=O)(=O)c1ccc(Nc2nc(OCC3CCCCC3)c3nc[nH]c3n2)cc1	0.1 °C
CN(C)c1ncnc2nc[nH]c12	0.4 °C
O=C1Cc2c([nH]c3ccc([N+](=O)[O-])cc23)-c2ccccc2N1	1.1 °C
CN(C)CCCn1cc(C2=C(c3c[nH]c4ccccc34)C(=O)NC2=O)c2ccccc21	0.6 °C
CCN1/C(=C/C(C)=O)Sc2ccc(OC)cc21	-0.4 °C

Recorded ΔTm for Cc1cncc2cccc(S(=O)(=O)N3CCCNC[C@@H]3C)c12 , please?
0.2 °C

What value of measured ΔTm is listed for O=c1c(-c2ccc(O)cc2)coc2cc(O)cc(O)c12 ?
0.6 °C

Quick check: ΔTm of COc1ccc(CNC(=O)Nc2ncc([N+](=O)[O-])s2)cc1 ?
0.2 °C

* * *

target: TGF-beta receptor type-1 (Homo sapiens)
Sequence (P36897 whole entry): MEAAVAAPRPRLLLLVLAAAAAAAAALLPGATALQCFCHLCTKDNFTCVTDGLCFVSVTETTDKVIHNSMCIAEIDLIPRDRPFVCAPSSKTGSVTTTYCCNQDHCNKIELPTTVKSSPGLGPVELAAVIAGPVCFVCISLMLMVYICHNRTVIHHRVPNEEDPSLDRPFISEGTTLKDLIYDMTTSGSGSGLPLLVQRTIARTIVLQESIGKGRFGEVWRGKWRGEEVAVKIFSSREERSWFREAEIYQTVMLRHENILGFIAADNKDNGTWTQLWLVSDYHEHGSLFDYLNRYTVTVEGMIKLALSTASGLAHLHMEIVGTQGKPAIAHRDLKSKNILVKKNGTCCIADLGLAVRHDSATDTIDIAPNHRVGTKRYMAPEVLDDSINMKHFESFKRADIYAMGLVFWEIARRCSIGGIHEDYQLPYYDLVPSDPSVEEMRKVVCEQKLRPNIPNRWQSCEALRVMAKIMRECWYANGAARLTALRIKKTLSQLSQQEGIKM
assay.endpoint: IC50
Answers without a unit are incomplete; give the number and then its unit.

Given the entry NC(=O)c1ccc(-c2nc(-c3ccc4c(c3)OCCO4)c(-c3ccccn3)[nH]2)cc1 , report its measured IC50.
500 nM

* * *

biological target: Serine/threonine-protein kinase 16 (Homo sapiens) (UniProt O75716)
Sequence (O75716 whole entry): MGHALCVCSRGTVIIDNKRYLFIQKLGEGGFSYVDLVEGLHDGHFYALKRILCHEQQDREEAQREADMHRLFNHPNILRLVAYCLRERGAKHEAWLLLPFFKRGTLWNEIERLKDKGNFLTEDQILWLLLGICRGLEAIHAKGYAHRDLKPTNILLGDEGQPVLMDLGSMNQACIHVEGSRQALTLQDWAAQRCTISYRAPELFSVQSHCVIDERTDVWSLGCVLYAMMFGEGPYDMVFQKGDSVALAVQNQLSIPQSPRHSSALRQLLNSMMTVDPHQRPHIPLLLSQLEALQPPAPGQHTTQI
Recorded ΔTm, one value per entry.
Write down the value, and be sure its unit follows.

Reference set (3 entries):
CN1CCc2[nH]c(=S)c(C#N)c(-c3cccs3)c2C1	0.5 °C
CC(C)(C)c1cc(C=C2C(=O)C=CC2=O)cc(C(C)(C)C)c1O	0.2 °C
CC(C)(C)c1nc2c3ccc(F)cc3c3c(=O)[nH]ccc3c2[nH]1	3.5 °C

Missing value: ΔTm, Serine/threonine-protein kinase 16 (Homo sapiens) (UniProt O75716), entry O=c1cc(-c2ccc(O)cc2)oc2cc(O)cc(O)c12 . Fill in?
4.8 °C

Lookup: ΔTm / Serine/threonine-protein kinase 16 (Homo sapiens) (UniProt O75716) / CCCNC(=O)Nc1ccc(Oc2ncnc3cc(OC)c(OC)cc23)cc1Cl [KRN-633]
0.2 °C
